# SYSTEM UNDER TEST: FGFR3 (UniProt P22607)
# Sequence (P22607 whole entry, looked up): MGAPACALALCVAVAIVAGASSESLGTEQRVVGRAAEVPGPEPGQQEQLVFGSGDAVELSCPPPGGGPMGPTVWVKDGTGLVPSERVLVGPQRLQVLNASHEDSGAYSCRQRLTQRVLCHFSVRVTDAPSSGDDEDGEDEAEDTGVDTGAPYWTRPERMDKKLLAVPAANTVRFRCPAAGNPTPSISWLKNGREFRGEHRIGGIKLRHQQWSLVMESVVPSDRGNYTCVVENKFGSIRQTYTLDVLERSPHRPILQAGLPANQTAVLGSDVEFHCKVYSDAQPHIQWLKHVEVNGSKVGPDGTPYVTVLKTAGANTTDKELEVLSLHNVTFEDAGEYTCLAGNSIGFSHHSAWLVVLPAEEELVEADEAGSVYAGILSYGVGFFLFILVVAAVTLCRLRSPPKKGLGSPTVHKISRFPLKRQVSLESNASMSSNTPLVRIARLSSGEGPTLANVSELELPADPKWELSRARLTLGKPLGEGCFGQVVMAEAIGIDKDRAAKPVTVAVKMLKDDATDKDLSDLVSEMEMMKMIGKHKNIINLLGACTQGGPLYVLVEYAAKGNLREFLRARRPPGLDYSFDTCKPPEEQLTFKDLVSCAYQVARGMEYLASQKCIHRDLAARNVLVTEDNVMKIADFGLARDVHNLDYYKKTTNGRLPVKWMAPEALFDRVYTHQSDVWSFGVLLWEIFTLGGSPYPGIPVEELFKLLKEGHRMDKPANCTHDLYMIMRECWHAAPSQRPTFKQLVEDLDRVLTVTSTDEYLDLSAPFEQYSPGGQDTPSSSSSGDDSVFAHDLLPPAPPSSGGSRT
# ASSAY PROCEDURE: phosphorylation enrichment, bacterial display (enrichment ratio); higher = better substrate or ligand; peptides without Tyr show the background;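 further: 11-residue human phosphosite peptides and single-mutation variants displayed on the E. coli surface, counted by deep sequencing, each peptide's frequency after selection divided by its frequency in the unselected input library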;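 further: frequency after pTyr selection over input frequency; kinase dosed for 20-30% of maximal phosphorylation in three min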
// label = rule met if phosphorylation enrichment is not less than 1, otherwise rule not met

- BIOSEQUENCE: "KGEDFYCVTYH [FHL1_Y149_C153Y]"
  DISCRETE LABEL: "rule met"
- BIOSEQUENCE: "LPHVIYCRLWR [SMAD2_Y128]"
  DISCRETE LABEL: "rule not met"
- BIOSEQUENCE: "FTNELYMMMRD [FGFR1_Y730_C725Y_YF]"
  DISCRETE LABEL: "rule met"
- BIOSEQUENCE: "ASTDFNKRGDF [PDHA1_Y243_Y243N_YF]"
  DISCRETE LABEL: "rule not met"
- BIOSEQUENCE: "YETDYYRKGGK [INSR_Y1190]"
  DISCRETE LABEL: "rule not met"

Lab note: next sequence to report on.
Is it the case that MCTVDYLLRLQ [RYR1_Y3921_I3916M] has phosphorylation enrichment reaching or exceeding 1?
rule not met

All values here come from the supplement of paper PMC10065799.
